TGT: AGO2 WT (phosphosite mutant background) (Homo sapiens, UniProt Q9UKV8 1-859, S387D;S824A;S828D;S831D;S834A)
Sequence (Q9UKV8 whole entry S387D/S824A/S828D/S831D/S834A): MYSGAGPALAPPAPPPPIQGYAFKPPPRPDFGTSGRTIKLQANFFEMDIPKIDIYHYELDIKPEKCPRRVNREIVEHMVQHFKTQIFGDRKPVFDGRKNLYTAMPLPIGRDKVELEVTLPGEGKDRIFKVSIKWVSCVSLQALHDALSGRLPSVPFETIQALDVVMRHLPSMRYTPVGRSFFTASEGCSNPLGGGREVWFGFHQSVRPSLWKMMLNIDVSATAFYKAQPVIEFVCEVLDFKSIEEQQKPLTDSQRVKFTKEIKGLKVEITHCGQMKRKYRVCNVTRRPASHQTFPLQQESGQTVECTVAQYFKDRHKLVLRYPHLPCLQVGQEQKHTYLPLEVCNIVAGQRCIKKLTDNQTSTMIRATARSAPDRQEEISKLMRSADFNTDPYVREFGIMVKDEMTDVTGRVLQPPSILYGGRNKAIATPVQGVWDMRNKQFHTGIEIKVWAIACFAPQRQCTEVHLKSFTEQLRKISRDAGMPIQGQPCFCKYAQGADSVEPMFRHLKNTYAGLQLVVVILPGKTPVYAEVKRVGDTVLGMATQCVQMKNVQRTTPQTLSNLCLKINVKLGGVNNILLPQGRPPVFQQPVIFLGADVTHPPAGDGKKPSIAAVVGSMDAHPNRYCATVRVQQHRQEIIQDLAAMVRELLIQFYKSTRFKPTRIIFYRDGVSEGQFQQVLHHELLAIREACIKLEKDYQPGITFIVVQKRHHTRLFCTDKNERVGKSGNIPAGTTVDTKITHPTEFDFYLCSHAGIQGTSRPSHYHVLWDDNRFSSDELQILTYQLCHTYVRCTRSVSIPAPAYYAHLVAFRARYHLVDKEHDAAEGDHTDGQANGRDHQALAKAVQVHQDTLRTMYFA
ASSAY_REMARKS: RNA Bind-n-Seq (nitrocellulose filter binding and sequencing); miR-122 guide loaded in AGO2; 60 min incubation; 30 mM Tris pH 8.0, 100 mM potassium acetate, 2 mM magnesium acetate, 0.5 mM TCEP, 0.005% NP-40, 0.01 mg/ml yeast tRNA; 3 nM AGO2-miR-122, 100 nM RNA library; 60; high values mean tight binding
MEASUREMENT_CONDITIONS: protein: recombinant; tags: His6 (N-terminal, pFastBac HTA)
VALUE_TYPE: binding signal

q: Recorded binding signal for ACGCTCCA (ssRNA, constant regions annealed to DNA blockers; guide miR-122 5' phosphate) RNA 1: GAGUUCUACAGUCCGACGAUCCCAACACGCUCCACACCUGGAAUUCUCGGGUGCCAA RNA 2: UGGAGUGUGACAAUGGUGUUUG DNA 1: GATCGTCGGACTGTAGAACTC DNA 2: TTGGCACCCGAGAATTCCA , please?
a: 5.29 fold enrichment over input

q: # input binder: ACGTCTTA (ssRNA, constant regions annealed to DNA blockers; guide miR-122 5' phosphate) RNA 1: GAGUUCUACAGUCCGACGAUCCCAACACGUCUUACACCUGGAAUUCUCGGGUGCCAA RNA 2: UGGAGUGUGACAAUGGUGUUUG DNA 1: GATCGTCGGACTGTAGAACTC DNA 2: TTGGCACCCGAGAATTCCA ; wanted: its binding signal
a: 0.13 fold enrichment over input

q: Can you share its binding signal? I mean this binder: GCACTCCG (ssRNA, constant regions annealed to DNA blockers; guide miR-122 5' phosphate) RNA 1: GAGUUCUACAGUCCGACGAUCCCAACGCACUCCGCACCUGGAAUUCUCGGGUGCCAA RNA 2: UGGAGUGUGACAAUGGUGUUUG DNA 1: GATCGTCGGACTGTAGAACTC DNA 2: TTGGCACCCGAGAATTCCA
a: 85.3 fold enrichment over input

q: What value of measured binding signal is listed for ACACTCTA (ssRNA, constant regions annealed to DNA blockers; guide miR-122 5' phosphate) RNA 1: GAGUUCUACAGUCCGACGAUCCCAACACACUCUACACCUGGAAUUCUCGGGUGCCAA RNA 2: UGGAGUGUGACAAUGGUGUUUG DNA 1: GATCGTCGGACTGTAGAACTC DNA 2: TTGGCACCCGAGAATTCCA ?
a: 0.587 fold enrichment over input
